log10 IC50 values, listed per item
biological target: Glycine receptor subunit alpha-1 (Homo sapiens, UniProt P23415); experiment: Antagonist activity at recombinant human glycine receptor alpha 1 expressed in HEK293 cells assessed as inhibition of glycine-induced current at -50 mV holding potential by whole cell patch-clamp method; format: cell-based
Sequence (P23415 whole entry): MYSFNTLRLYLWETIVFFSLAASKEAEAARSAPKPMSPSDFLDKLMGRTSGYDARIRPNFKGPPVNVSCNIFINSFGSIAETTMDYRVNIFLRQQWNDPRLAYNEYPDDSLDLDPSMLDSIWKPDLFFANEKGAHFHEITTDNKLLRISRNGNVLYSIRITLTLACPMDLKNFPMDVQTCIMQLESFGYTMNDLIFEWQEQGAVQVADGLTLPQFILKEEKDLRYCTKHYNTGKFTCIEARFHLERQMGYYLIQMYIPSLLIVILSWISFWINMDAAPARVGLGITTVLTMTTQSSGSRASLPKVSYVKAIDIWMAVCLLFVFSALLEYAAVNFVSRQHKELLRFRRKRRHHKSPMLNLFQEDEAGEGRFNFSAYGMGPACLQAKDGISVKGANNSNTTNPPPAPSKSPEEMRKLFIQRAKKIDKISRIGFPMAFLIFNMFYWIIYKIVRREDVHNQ
# values: log10(IC50), units nM

Guide cases for log10 IC50, answers given:
{"compound": "CCC[N+]12CC[C@@]34c5ccccc5N5C(=O)C[C@@H]6OCC=C(C1)[C@H](C[C@@H]32)[C@@H]6[C@H]54 (stereo partly drawn)", "log10 IC50": 3.66}
{"compound": "CCC(=O)Nc1ccc2c(c1)[C@@]13CCN4CC5=CCO[C@H]6CC(=O)N2[C@H]1[C@H]6[C@H]5C[C@H]43", "log10 IC50": 2.30}
{"compound": "C=CCO/N=C1/C(=O)N2c3ccccc3[C@@]34CCN5CC6=CCO[C@@H]1[C@@H]([C@H]23)[C@H]6C[C@H]54", "log10 IC50": 1.69}
{"compound": "O=C1C[C@@H]2OCC=C3CN4CC[C@]56c7ccccc7N1[C@H]5[C@H]2[C@H]3C[C@H]46 [STRYCHNINE]", "log10 IC50": 1.71}
{"compound": "C#CCO/N=C1/C(=O)N2c3ccccc3[C@@]34CCN5CC6=CCO[C@@H]1[C@@H]([C@H]23)[C@H]6C[C@H]54", "log10 IC50": 1.77}
{"compound": "CO/N=C1/C(=O)N2c3ccccc3[C@@]34CCN5CC6=CCO[C@@H]1[C@@H]([C@H]23)[C@H]6C[C@H]54", "log10 IC50": 1.88}
{"compound": "Nc1ccc2c(c1)[C@@]13CCN4CC5=CCO[C@H]6CC(=O)N2[C@H]1[C@H]6[C@H]5C[C@H]43", "log10 IC50": 1.88}

// next entry
Record summary for CCCO/N=C1/C(=O)N2c3ccccc3[C@@]34CCN5CC6=CCO[C@@H]1[C@@H]([C@H]23)[C@H]6C[C@H]54 : reported log10 IC50 = 2.04

----------
Target: Glycine receptor subunit alpha-1 (Rattus norvegicus, UniProt P07727)
Sequence (P07727 whole entry): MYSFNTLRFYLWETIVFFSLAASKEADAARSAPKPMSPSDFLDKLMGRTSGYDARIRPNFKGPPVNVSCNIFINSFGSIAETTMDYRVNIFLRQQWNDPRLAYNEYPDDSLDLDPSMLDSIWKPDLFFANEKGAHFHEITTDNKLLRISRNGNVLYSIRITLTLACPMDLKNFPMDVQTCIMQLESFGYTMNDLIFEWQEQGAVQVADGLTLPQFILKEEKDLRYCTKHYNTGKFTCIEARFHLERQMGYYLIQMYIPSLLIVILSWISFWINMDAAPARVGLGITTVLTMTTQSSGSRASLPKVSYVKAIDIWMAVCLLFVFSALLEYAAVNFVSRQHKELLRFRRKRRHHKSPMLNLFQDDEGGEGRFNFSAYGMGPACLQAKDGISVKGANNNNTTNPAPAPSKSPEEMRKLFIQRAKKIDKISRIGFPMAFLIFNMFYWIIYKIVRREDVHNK
Catalogue of pKi values
Kindly note that pKi refers to -log10 of the concentration in mol/L and answer with the value alone.

{"molecule": "Nc1ccc2c(c1)[C@@]13CCN4CC5=CCO[C@H]6CC(=O)N2[C@H]1[C@H]6[C@H]5C[C@H]43", "pKi": 7.74}

In the following, a different molecule is considered.
Documented pKi of O=C1C[C@@H]2OCC=C3CN4CC[C@]56c7ccccc7N1[C@H]5[C@H]2[C@H]3C[C@H]46 [STRYCHNINE] : 7.92

----------
molecular target: Glycine receptor (alpha-1/beta) (Homo sapiens, UniProt P23415+P48167); assay: Antagonist activity at recombinant human glycine receptor alpha 1 beta expressed in human tsA201 cells assessed as inhibition of glycine-induced receptor activation after 30 mins by FLIPR membrane potential blue assay; type: cell-based
Sequence (P23415 whole entry): as the sequence (P23415 whole entry) above
Sequence (P48167 whole entry): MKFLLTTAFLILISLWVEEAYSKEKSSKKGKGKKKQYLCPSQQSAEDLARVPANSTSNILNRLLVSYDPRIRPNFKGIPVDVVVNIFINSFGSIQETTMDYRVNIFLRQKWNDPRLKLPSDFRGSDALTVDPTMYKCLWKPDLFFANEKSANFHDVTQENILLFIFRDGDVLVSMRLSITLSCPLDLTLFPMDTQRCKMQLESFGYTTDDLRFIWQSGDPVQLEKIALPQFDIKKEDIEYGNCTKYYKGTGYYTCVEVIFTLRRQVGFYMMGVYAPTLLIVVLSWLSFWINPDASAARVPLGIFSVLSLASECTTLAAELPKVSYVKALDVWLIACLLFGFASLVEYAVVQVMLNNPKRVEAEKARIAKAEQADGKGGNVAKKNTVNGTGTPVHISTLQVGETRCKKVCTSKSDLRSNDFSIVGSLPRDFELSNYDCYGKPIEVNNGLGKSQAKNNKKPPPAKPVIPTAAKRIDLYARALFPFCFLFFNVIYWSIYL
pIC50: −log10 of the molar value.
Could you label it Y if measured pIC50 is 6 or higher, and N otherwise?

Solved cases below.
{"compound": "C#CCO/N=C1/C(=O)N2c3ccccc3[C@@]34CCN5CC6=CCO[C@@H]1[C@@H]([C@H]23)[C@H]6C[C@H]54", "group": "Y"}
{"compound": "CCC[N+]12CC[C@@]34c5ccccc5N5C(=O)C[C@@H]6OCC=C(C1)[C@H](C[C@@H]32)[C@@H]6[C@H]54 (some centres undefined)", "group": "N"}
{"compound": "CCCO/N=C1/C(=O)N2c3ccccc3[C@@]34CCN5CC6=CCO[C@@H]1[C@@H]([C@H]23)[C@H]6C[C@H]54", "group": "Y"}

Please examine the following record next.
Would you say O=C1/C(=N/OCc2ccccc2)[C@@H]2OCC=C3CN4CC[C@]56c7ccccc7N1[C@H]5[C@H]2[C@H]3C[C@H]46 shows pIC50 at minimum 6? Y

----------
molecular target: Glycine receptor (alpha-1/beta) (Homo sapiens, UniProt P23415+P48167); experiment: Antagonist activity at recombinant human glycine receptor alpha 1 beta expressed in HEK293 cells assessed as inhibition of glycine-induced current at -50mV holding potential by whole cell patch-clamp method; format: cell-based
Let's look at some compounds and their measured log10 of IC50.
Remember, log10 of IC50, in nM.

// worked examples, log10 of IC50 included
{"compound": "C=CCO/N=C1/C(=O)N2c3ccccc3[C@@]34CCN5CC6=CCO[C@@H]1[C@@H]([C@H]23)[C@H]6C[C@H]54", "dataValue": 1.66}
{"compound": "C#CCO/N=C1/C(=O)N2c3ccccc3[C@@]34CCN5CC6=CCO[C@@H]1[C@@H]([C@H]23)[C@H]6C[C@H]54", "dataValue": 1.63}
{"compound": "CCCO/N=C1/C(=O)N2c3ccccc3[C@@]34CCN5CC6=CCO[C@@H]1[C@@H]([C@H]23)[C@H]6C[C@H]54", "dataValue": 2.06}
{"compound": "CCC[N+]12CC[C@@]34c5ccccc5N5C(=O)C[C@@H]6OCC=C(C1)[C@H](C[C@@H]32)[C@@H]6[C@H]54 (stereo partly drawn)", "dataValue": 3.81}
{"compound": "CCC(=O)Nc1ccc2c(c1)[C@@]13CCN4CC5=CCO[C@H]6CC(=O)N2[C@H]1[C@H]6[C@H]5C[C@H]43", "dataValue": 2.49}

# compound Nc1ccc2c(c1)[C@@]13CCN4CC5=CCO[C@H]6CC(=O)N2[C@H]1[C@H]6[C@H]5C[C@H]43 ; its log10 of IC50 = 1.99

Entry CO/N=C1/C(=O)N2c3ccccc3[C@@]34CCN5CC6=CCO[C@@H]1[C@@H]([C@H]23)[C@H]6C[C@H]54 , log10 of IC50 reported as 1.75

Per the record, O=C1C[C@@H]2OCC=C3CN4CC[C@]56c7ccccc7N1[C@H]5[C@H]2[C@H]3C[C@H]46 has log10 of IC50 of 1.76

----------
molecular target: Glycine receptor subunit alpha-1 (Homo sapiens); assay: Antagonist activity at recombinant human glycine receptor alpha 1 expressed in human tsA201 cells assessed as inhibition of glycine-induced receptor activation after 30 mins by FLIPR membrane potential blue assay; assay type: cell-based; conditions: read-out: IC50
Attribute: pIC50
Value format note: pIC50 is -log10 of concentration (mol/L); just state the number.

Lookup result for Nc1ccc2c(c1)[C@@]13CCN4CC5=CCO[C@H]6CC(=O)N2[C@H]1[C@H]6[C@H]5C[C@H]43 ; measured pIC50: 7.11

CCCCCO/N=C1/C(=O)N2c3ccccc3[C@@]34CCN5CC6=CCO[C@@H]1[C@@H]([C@H]23)[C@H]6C[C@H]54 has a reported pIC50 of 6.60

// recorded pIC50 for C=CCO/N=C1/C(=O)N2c3ccccc3[C@@]34CCN5CC6=CCO[C@@H]1[C@@H]([C@H]23)[C@H]6C[C@H]54 : 7.02

For this molecule ( COC(=O)CO/N=C1/C(=O)N2c3ccccc3[C@@]34CCN5CC6=CCO[C@@H]1[C@@H]([C@H]23)[C@H]6C[C@H]54 ), measured pIC50 is 6.66

Consider CO/N=C1/C(=O)N2c3ccccc3[C@@]34CCN5CC6=CCO[C@@H]1[C@@H]([C@H]23)[C@H]6C[C@H]54 . Its measured pIC50 is 7.00

In plain terms, CCC(=O)Nc1ccc2c(c1)[C@@]13CCN4CC5=CCO[C@H]6CC(=O)N2[C@H]1[C@H]6[C@H]5C[C@H]43 has a documented pIC50 of 6.27

----------
target: Glycine receptor (alpha-1/beta) (Homo sapiens, UniProt P23415+P48167); assay: Antagonist activity at recombinant human glycine receptor alpha 1 beta expressed in human tsA201 cells assessed as inhibition of glycine-induced receptor activation after 30 mins by FLIPR membrane potential blue assay; format: cell-based
Param label: returns t when IC50 < 0.9 µM, returns f otherwise, including exact equality.

Completed entries (count: 3):
{"sampleSmiles": "CC(C)CO/N=C1/C(=O)N2c3ccccc3[C@@]34CCN5CC6=CCO[C@@H]1[C@@H]([C@H]23)[C@H]6C[C@H]54", "group": "f"}
{"sampleSmiles": "CCCCCO/N=C1/C(=O)N2c3ccccc3[C@@]34CCN5CC6=CCO[C@@H]1[C@@H]([C@H]23)[C@H]6C[C@H]54", "group": "t"}
{"sampleSmiles": "O=C1/C(=N/OCCc2ccccc2)[C@@H]2OCC=C3CN4CC[C@]56c7ccccc7N1[C@H]5[C@H]2[C@H]3C[C@H]46", "group": "t"}

Then this compound:
# strict comparison: is reported IC50 < 0.9 µM? input = COC(=O)CCCCO/N=C1/C(=O)N2c3ccccc3[C@@]34CCN5CC6=CCO[C@@H]1[C@@H]([C@H]23)[C@H]6C[C@H]54 f
